Where these numbers come from: patent US11254668B2

molecular target: UniProt O60674; test: JAK Caliper Enzyme Assay at 1 mM ATP, JAK2; assay type: biochemical; conditions: JAK Caliper enzyme assay
Sequence (O60674 849-1124): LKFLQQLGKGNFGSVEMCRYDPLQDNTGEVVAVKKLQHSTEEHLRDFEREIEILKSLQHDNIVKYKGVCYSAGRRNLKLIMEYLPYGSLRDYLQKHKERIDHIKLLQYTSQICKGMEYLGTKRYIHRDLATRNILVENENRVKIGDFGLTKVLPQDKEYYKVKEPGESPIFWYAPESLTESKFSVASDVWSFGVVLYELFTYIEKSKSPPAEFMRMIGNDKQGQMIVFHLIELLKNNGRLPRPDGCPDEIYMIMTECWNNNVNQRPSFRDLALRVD
pIC50: −log10 of the molar value.
Rule: True for pIC50 not less than 6, False for anything less.

Task item: Identify whether the reported pIC50 of the following compound is 6 or greater: `Cc1cc(-c2cc(-c3cnn(C4(CC#N)CN(S(C)(=O)=O)C4)n3)c3cccnc3c2)cnc1N`
Reply: False

Task item: Identify whether the reported pIC50 of the following compound is 6 or greater: `N#CC[C@]1(n2ncc(-c3cc(-c4cnn5cccnc45)cc4ncccc34)n2)C[C@@H](C#N)C1`
Reply: True

Task item: Identify whether the reported pIC50 of the following compound is 6 or greater: `N#CC[C@]1(n2ncc(-c3cc(-c4cnn5cccnc45)cc4ncccc34)n2)C[C@H](C#N)C1`
Reply: False

Task item: Identify whether the reported pIC50 of the following compound is 6 or greater: `Cn1cc(-c2cc(-c3cnn([C@]4(CC#N)C[C@H](C#N)C4)n3)n3ccnc3c2)cn1`
Reply: False

Task item: Identify whether the reported pIC50 of the following compound is 6 or greater: `Cn1cc(-c2cc(-c3cnn(C4(CC#N)CN(CC(F)(F)F)C4)c3)n3ccnc3c2)cn1`
Reply: False

Task item: Identify whether the reported pIC50 of the following compound is 6 or greater: `Cn1cc(-c2cn3ncnc3c(-c3cnn(C4(CC#N)CN(CC#N)C4)c3)n2)cn1`
Reply: False

----------
Kindly supply the reported IC50 values for the records listed here.
molecular target: TYK2 (Homo sapiens (Human), UniProt P29597); assay: JAK Caliper Enzyme Assay at 1 mM ATP, TYK2; format: biochemical
Sequence (P29597 897-1176): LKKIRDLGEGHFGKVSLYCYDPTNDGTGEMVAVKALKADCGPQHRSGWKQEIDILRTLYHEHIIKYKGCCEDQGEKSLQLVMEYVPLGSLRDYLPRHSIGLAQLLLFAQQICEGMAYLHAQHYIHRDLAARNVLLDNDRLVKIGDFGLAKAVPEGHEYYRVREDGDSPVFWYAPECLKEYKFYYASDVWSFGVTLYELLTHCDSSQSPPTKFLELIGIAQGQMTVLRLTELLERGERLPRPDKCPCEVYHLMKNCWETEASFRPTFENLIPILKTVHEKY
Reply with just the number (in nM).

Task item: Look up IC50: `N#CCC1(n2ncc(-c3cc(-c4cc[nH]n4)cc4ncccc34)n2)CN(S(N)(=O)=O)C1`
Reply: 16

Task item: Look up IC50: N#CCC1(n2ncc(-c3cc(-c4cc(C(N)=O)ccn4)cc4ncccc34)n2)CC(C#N)C1 (stereo not shown)
Reply: 1570

Task item: Look up IC50: `Cn1nc(-c2cc3ncccc3c(-c3ccn([C@]4(CC#N)C[C@](C)(C#N)C4)n3)n2)cc1N`
Reply: 39

Task item: Look up IC50: `CS(=O)(=O)N1CC(CC#N)(n2ccc(-c3nc(-c4ccc(N)nc4N)cc4ncccc34)n2)C1`
Reply: 33

Task item: Look up IC50: `N#CC[C@]1(n2ccc(-c3nc(-c4cn[nH]c4)cc4ncccc34)n2)C[C@@H](c2ccn[nH]2)C1`
Reply: 30

Task item: Look up IC50: `CCn1cc(-c2cc3ncccc3c(-c3ccn(C4(CC#N)CN(S(C)(=O)=O)C4)n3)n2)ccc1=O`
Reply: 48

Task item: Look up IC50: `Cc1nc(-c2cc3ncccc3c(-c3ccn(C4(CC#N)CN(CC(F)(F)F)C4)n3)n2)cn1C`
Reply: 309

----------
molecular target: UniProt:P23458; experiment: JAK Caliper Enzyme Assay at 1 mM ATP, JAK1; type: biochemical
Kindly supply the reported log10 IC50 values for the records listed here.
Give log10 of IC50, with IC50 taken in nM.

Task item: Look up log10 IC50: `N#CC[C@]1(n2ncc(-c3cc(-c4ccnc(N)c4)cc4ncccc34)n2)C[C@H](C#N)C1`
Reply: 3.45

Task item: Look up log10 IC50: `CC(=O)Nc1cc(-c2cc3ncccc3c(-c3ccn(C4(CC#N)CN(S(C)(=O)=O)C4)n3)n2)cnc1NC(C)=O`
Reply: 3.76

Task item: Look up log10 IC50: `N#CC[C@]1(n2ccc(-c3nc(-c4cccc(CO)n4)cc4ncccc34)n2)C[C@@H](C#N)C1`
Reply: 3.47

Task item: Look up log10 IC50: `Cn1cc(-c2cc3ncccc3c(-c3ccn(C4(CC#N)CN(CC#N)C4)n3)n2)cn1`
Reply: 2.63

Task item: Look up log10 IC50: `CS(=O)(=O)N1CC(CC#N)(n2ccc(-c3nc(-c4ccc(N)nc4)cc4ncccc34)n2)C1`
Reply: 2.93

Task item: Look up log10 IC50: `Cn1cc(-c2cc3ncccc3c(-n3ccc(C4(CC#N)CN(CC(F)(F)F)C4)n3)n2)cn1`
Reply: 3.80

----------
target: TYK2 (Homo sapiens (Human)); experiment: JAK Caliper Enzyme Assay at 1 mM ATP, TYK2; type: biochemical
Kindly supply the reported IC50 values for the records listed here.

Task item: Look up IC50: `Cc1cc(-c2cc3ncccc3c(-c3ccn(C4(CC#N)CN(CC(F)(F)F)C4)n3)n2)c[nH]c1=O`
Reply: 55 nM

Task item: Look up IC50: `Cc1ccc(-c2cc3ncccc3c(-c3ccn(C4(CC#N)CN(CC(F)(F)F)C4)n3)n2)cn1`
Reply: 58 nM

Task item: Look up IC50: `Cn1ncc(-c2cc(-c3cnn([C@]4(CC#N)C[C@@H](C#N)C4)n3)c3cccnc3c2)c1N`
Reply: 143 nM

Task item: Look up IC50: `COc1ccc(-c2cc3ncccc3c(-c3ccn(C4(CC#N)CN(CC(F)(F)F)C4)n3)n2)cn1`
Reply: 80 nM

----------
target: JAK1 (Homo sapiens (Human), UniProt P23458); assay: JAK Caliper Enzyme Assay at 1 mM ATP, JAK1; assay type: biochemical
Sequence (P23458 875-1153): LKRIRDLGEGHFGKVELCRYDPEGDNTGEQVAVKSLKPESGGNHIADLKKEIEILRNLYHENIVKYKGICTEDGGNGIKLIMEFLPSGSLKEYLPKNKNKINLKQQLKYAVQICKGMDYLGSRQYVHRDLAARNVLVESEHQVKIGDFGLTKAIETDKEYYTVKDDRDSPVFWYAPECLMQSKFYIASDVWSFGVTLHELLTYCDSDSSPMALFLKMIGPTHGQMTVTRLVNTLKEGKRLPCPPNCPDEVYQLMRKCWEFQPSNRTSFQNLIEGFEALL
VALUE KIND: IC50
Returns: string containing the number followed by the unit.

Task item: Look up IC50: `CS(=O)(=O)N1CC(CC#N)(n2ncc(-c3nc(-c4cc[nH]n4)cc4ncccc34)n2)C1`
Reply: 0.179 µM

Task item: Look up IC50: `Cc1cc(-c2nc(-c3cn[nH]c3)cc3ncccc23)nn1C1(CC#N)CN(S(C)(=O)=O)C1`
Reply: 3.79 µM

Task item: Look up IC50: `N#CC[C@]1(n2ccc(-c3nc(-c4cn[nH]c4)cc4ncccc34)n2)C[C@H](C#N)C1`
Reply: 0.293 µM

Task item: Look up IC50: N#CCC1CC(CC#N)(n2ccc(-c3nc(-c4ccn[nH]4)cc4ncccc34)n2)C1 (centres unmarked)
Reply: 0.324 µM

Task item: Look up IC50: `N#CC[C@]1(n2ncc(-c3cc(-c4cc[nH]n4)cc4ncccc34)n2)C[C@@H](C#N)C1`
Reply: 0.081 µM

Task item: Look up IC50: `CS(=O)(=O)N1CC(CC#N)(n2ncc(-c3cc(-c4cn[nH]c4)cc4ncccc34)n2)C1`
Reply: 1.15 µM

Task item: Look up IC50: `Cc1cc(-c2cc3ncccc3c(-c3ccn([C@]4(CC#N)C[C@@](C)(C#N)C4)n3)n2)n[nH]1`
Reply: 9.68 µM

Task item: Look up IC50: `CNc1cc(-c2cc3ncccc3c(-c3ccn([C@]4(CC#N)C[C@H](C#N)C4)n3)n2)nn1C`
Reply: 3.4 µM

----------
Biological target: TYK2 (Homo sapiens (Human))
Assay: JAK Caliper Enzyme Assay at 1 mM ATP, TYK2
Assay type: biochemical
Conditions: JAK Caliper enzyme assay
Method: Compounds of the invention were evaluated by in vitro methods to determine their respective ability to inhibit the JAK kinases (TYK2, JAK1, JAK2, JAK3). The human JAK inhibitory activity was determined by using a microfluidic assay to monitor phosphorylation of a synthetic peptide by the recombinant human kinase domain of each of the four members of the JAK family, JAK1, JAK2, JAK3 and TYK2. […]
VALUE KIND: IC50
Returns: string containing the number followed by the unit.

Task item: Look up IC50: `CO[C@H]1C[C@@](CC#N)(n2cc(-c3cc(-c4c[nH]nc4CO)cc4nccn34)cn2)C1`
Reply: 2140 nM

Task item: Look up IC50: `COc1nc(-c2cc(-c3cnn([C@]4(CC#N)C[C@H](C#N)C4)n3)c3cccnc3c2)ccc1N`
Reply: 7 nM

Task item: Look up IC50: `CS(=O)(=O)N1CC(CC#N)(n2ncc(-c3cc(-c4ccc(O)cc4)cc4ncccc34)n2)C1`
Reply: 30 nM

Task item: Look up IC50: `Cn1cc(-c2cc(-c3ccn(C4(CC#N)CN(CC(F)(F)F)C4)n3)n3ccnc3c2)cn1`
Reply: 5670 nM

----------
Kindly supply the reported pIC50 values for the records listed here.
Target: JAK3 (Homo sapiens (Human), UniProt P52333)
Sequence (P52333 822-1111): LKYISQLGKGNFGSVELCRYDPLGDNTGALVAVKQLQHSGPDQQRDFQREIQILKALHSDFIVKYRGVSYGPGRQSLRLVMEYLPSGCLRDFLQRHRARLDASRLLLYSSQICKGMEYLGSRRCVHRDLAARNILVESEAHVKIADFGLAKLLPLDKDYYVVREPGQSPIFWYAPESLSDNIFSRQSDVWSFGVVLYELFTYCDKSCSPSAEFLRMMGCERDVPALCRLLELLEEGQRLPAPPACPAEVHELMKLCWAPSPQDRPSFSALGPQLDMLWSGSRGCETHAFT
Assay: JAK Caliper Enzyme Assay at 1 mM ATP, JAK3
Format: biochemical
Procedure: Compounds of the invention were evaluated by in vitro methods to determine their respective ability to inhibit the JAK kinases (TYK2, JAK1, JAK2, JAK3). The human JAK inhibitory activity was determined by using a microfluidic assay to monitor phosphorylation of a synthetic peptide by the recombinant human kinase domain of each of the four members of the JAK family, JAK1, JAK2, JAK3 and TYK2. […]
pIC50: −log10 of the molar value.

Task item: Look up pIC50: `N#CCC1(n2ccc(-c3nc(-c4cnc5c(c4)CCC5)cc4ncccc34)n2)CN(CC(F)(F)F)C1`
Reply: < 5.00

Task item: Look up pIC50: `N#CCC1(n2ccc(-c3nc(-c4ncc[nH]4)cc4ncccc34)n2)CN(CC(F)(F)F)C1`
Reply: < 5.00

Task item: Look up pIC50: `Cn1cc(-c2cc3ncccc3c(-c3ccn([C@]4(CC#N)C[C@H](C#N)C4)n3)n2)cn1`
Reply: 6.06

Task item: Look up pIC50: `Cc1cc(-c2nc(-c3cc(N)n(C)n3)cc3ncccc23)nn1[C@]1(CC#N)C[C@H](C#N)C1`
Reply: 5.15

Task item: Look up pIC50: `N#CCC1(n2ccc(-c3nc(-c4cn[nH]n4)cc4ncccc34)n2)CN(CC(F)(F)F)C1`
Reply: < 5.00

Task item: Look up pIC50: `CS(=O)(=O)N1CC(CC#N)(n2ncc(-c3nc(-c4cc[nH]n4)cc4ncccc34)n2)C1`
Reply: < 5.00

Task item: Look up pIC50: `CCN1CC(CC#N)(n2ccc(-c3nc(N4CCOCC4)cc4ncccc34)n2)C1`
Reply: < 5.00

Task item: Look up pIC50: `Cc1cc(-c2cc3ncccc3c(-c3ccn([C@]4(CC#N)C[C@H](C#N)C4)n3)n2)cc(N)n1`
Reply: 5.18

Task item: Look up pIC50: `Cc1ccc(-c2cc3ncccc3c(-c3ccn(C4(CC#N)CN(CC(F)(F)F)C4)n3)n2)cn1`
Reply: < 5.00

Task item: Look up pIC50: `CCN1CC(CC#N)(n2ccc(-c3nc(-c4c[nH]nc4N)cc4ncccc34)n2)C1`
Reply: < 5.00

Task item: Look up pIC50: N#CCC1(n2ncc(-c3cc(-c4ccc(C(N)=O)cn4)cc4ncccc34)n2)CC(C#N)C1 (stereo not shown) [Example 351]
Reply: < 5.00

Task item: Look up pIC50: `N#CC[C@]1(n2ccc(-c3nc(-c4cc(N)cnn4)cc4ncccc34)n2)C[C@H](C#N)C1`
Reply: < 5.00

Task item: Look up pIC50: `CS(=O)(=O)N1CC(CC#N)(n2ccc(-c3nc(-c4ccccc4CO)cc4ncccc34)n2)C1`
Reply: < 5.00

Task item: Look up pIC50: `CS(=O)(=O)N1CC(CC#N)(n2ccc(-c3nc(-c4cc(O)cc(F)c4)cc4ncccc34)n2)C1`
Reply: < 5.00

Task item: Look up pIC50: `Cn1ccc(-c2cc(-c3cnn([C@]4(CC#N)C[C@H](C#N)C4)n3)c3cccnc3c2)n1`
Reply: 5.26

Task item: Look up pIC50: `Cc1cc(-c2nc(-c3cn[nH]c3)cc3ncccc23)nn1[C@]1(CC#N)C[C@@H](C#N)C1`
Reply: < 5.00
